Provenance of the data: patent US20200000897A1

Biological target: T1, HLA-A*03:01 (human)
T1 construct: MHC class I monomer first loaded with a UV-sensitive peptide that is cleaved by UV irradiation and exchanged for the test peptide; captured on streptavidin plates; also called peptide-receptive MHC molecules
Assay: UV-ligand exchange, anti-b2m ELISA; peptide exchange yield grade (>10% +, >20% ++, >50% +++, >75% ++++)
ASSAY ENDPOINT: peptide exchange yield

KTWAHCMSY :: > 75%
GMTLLCEALK :: 20 to 50%
RVCMTVDSLVNK :: > 75%
QVLDLQSVK :: 20 to 50%
KVYIPPIINK :: > 75%

Respectfully, I request peptide exchange yield for each entry included below.
1. RSYSHVVLK
2. RVYPRPPSKTY
3. KLFTSVFGVGLK
4. KLQAKVLQY
5. LASSPAGHK
6. KTQFPQLK
7. RVYPHKTLY

1. > 75%
2. > 75%
3. > 75%
4. > 75%
5. 50 to 75%
6. 20 to 50%
7. 50 to 75%

Respectfully, I request peptide exchange yield for each entry included below.
1. RAVSVNPGK
2. VTAVASLLK
3. KLADSVMAGK
4. VLYRPQLEK
5. TLLSYELAFK
6. KLETGVVKK

1. 10 to 20%
2. > 75%
3. > 75%
4. > 75%
5. > 75%
6. > 75%
